Biological target: Coagulation factor X (Homo sapiens)
Experiment: Inhibition of human factor 10a
Entries and their measured Kapp follow.

{"columns": ["compound", "Kapp"],
 "data": [
  ["COc1ccc(NC(=O)c2ccccc2NC(=O)c2ccc(C(C)C)cc2)cc1", "7 10^6L/mol"],
  ["CN(C)CC(=O)N1CCC(Oc2cc(C(C)(C)C)ccc2C(=O)Nc2ccccc2C(=O)Nc2ccc(Cl)cn2)CC1", "176 10^6L/mol"]
]}

Q) Return Kapp measured with Coagulation factor X (Homo sapiens) given this compound: CC(C)N1CCC(Oc2cc(C(C)(C)C)ccc2C(=O)Nc2ccccc2C(=O)Nc2ccc(Cl)cn2)CC1
A) 3440 10^6L/mol

Q) Same question for CC(C)(C)c1ccc(C(=O)Nc2ccccc2C(=O)Nc2ccc(Cl)cn2)c(OCCCN)c1 please.
A) 1440 10^6L/mol

Q) Same question for CC(C)(C)c1ccc(C(=O)Nc2ccccc2C(=O)Nc2ccc(Cl)cn2)c(OC2CCN(Cc3ncc[nH]3)CC2)c1 please.
A) 2160 10^6L/mol

Q) Same question for CC(C)(C)c1ccc(C(=O)Nc2ccccc2C(=O)Nc2ccc(Cl)cn2)c(OCC2CCCCN2)c1 (centres undefined) please.
A) 219 10^6L/mol

Q) Same question for CC(C)(C)c1ccc(C(=O)Nc2ccccc2C(=O)Nc2ccc(Cl)cn2)c(OC2CCN(C(=O)Nc3ccccc3F)CC2)c1 please.
A) 307 10^6L/mol

Q) Same question for CC(C)(C)c1ccc(C(=O)Nc2ccccc2C(=O)Nc2ccc(Cl)cn2)c(O)c1 please.
A) 23 10^6L/mol

Q) Same question for CC(C)(C)c1ccc(C(=O)Nc2ccccc2C(=O)Nc2ccc(Cl)cn2)c(OC2CCN(C(=S)NCc3cccnc3)CC2)c1 please.
A) 733 10^6L/mol

Q) Same question for CC(C)(C)c1ccc(C(=O)Nc2ccccc2C(=O)Nc2ccc(Cl)cn2)c(OC2CCN(C(=O)CCC(=O)O)CC2)c1 please.
A) 714 10^6L/mol

Q) Same question for CC(C)(C)c1ccc(C(=O)Nc2ccccc2C(=O)Nc2ccc(Cl)cn2)c(OC2CCN(Cc3ccccc3)CC2)c1 please.
A) 488 10^6L/mol

----------
Biological target: Prothrombin (Homo sapiens)
Assay: Inhibition of human factor 2a
Entries and their measured Kapp follow.

Use the examples below as a reference point.
{"columns": ["molecule", "Kapp"],
 "data": [
  ["CC(C)(C)c1ccc(C(=O)Nc2ccccc2C(=O)Nc2ccc(Cl)cn2)c(OC2CCN(CC3CC3)CC2)c1", "37 10^6L/mol"],
  ["CC(C)(C)c1ccc(C(=O)Nc2ccccc2C(=O)Nc2ccc(Cl)cn2)c(OCC2CCCCN2)c1 (stereo unspecified)", "67 10^6L/mol"],
  ["CC(C)(C)c1ccc(C(=O)Nc2ccccc2C(=O)Nc2ccc(Cl)cn2)c(OCCCN)c1", "152 10^6L/mol"],
  ["CC(C)N1CCC(Oc2cc(C(C)(C)C)ccc2C(=O)Nc2ccccc2C(=O)Nc2ccc(Cl)cn2)CC1", "25 10^6L/mol"],
  ["CN(C)CC(=O)N1CCC(Oc2cc(C(C)(C)C)ccc2C(=O)Nc2ccccc2C(=O)Nc2ccc(Cl)cn2)CC1", "60 10^6L/mol"]
]}

// next item, Kapp requested
Q) I would be grateful if you could share the reported Kapp for CC(C)(C)c1ccc(C(=O)Nc2ccccc2C(=O)Nc2ccc(Cl)cn2)c(OC2CCN(C(=S)NCc3cccnc3)CC2)c1 .
A) 34 10^6L/mol
